Test system: Hep G2
Assay: Cytotoxicity assay (MTT), Hep G2 cell line
Assay type: cell-based
Conditions: 12.5 μM, 24 h
Measured endpoint: Percentage of inhibition of cell growth

CC[C@H]1OC(=O)[C@H](C)[C@@H](O[C@H]2C[C@@](C)(OC)[C@@H](OC(=O)CCN3CCN(CC4CCCN(C)C4)CC3)[C@H](C)O2)[C@H](C)[C@@H](O[C@@H]2O[C@H](C)C[C@H](N(C)C)[C@H]2O)[C@](C)(OC)C[C@@H](C)C(=O)N[C@H](C)[C@@H](O)[C@]1(C)O (some centres unmarked); 5%
CC[C@H]1OC(=O)[C@H](C)[C@@H](O[C@H]2C[C@@](C)(OC)[C@@H](OC(=O)CCN(CC)CC)[C@H](C)O2)[C@H](C)[C@@H](O[C@@H]2O[C@H](C)C[C@H](N(C)C)[C@H]2O)[C@](C)(O)C[C@@H](C)CN(C)[C@H](C)[C@@H](O)[C@]1(C)O; 0%
CC[C@H]1OC(=O)[C@H](C)[C@@H](O[C@H]2C[C@@](C)(OC)[C@@H](OC(=O)CCN(CC)CC)[C@H](C)O2)[C@H](C)[C@@H](O[C@@H]2O[C@H](C)C[C@H](N(C)C)[C@H]2O)[C@](C)(O)C[C@@H](C)CN(C)[C@H](C)[C@H]2OC(=O)O[C@@]21C; 0%
CC[C@H]1OC(=O)[C@H](C)[C@@H](O[C@H]2C[C@@](C)(OC)[C@@H](OC(=O)CCN3CC(C)CC(C)C3)[C@H](C)O2)[C@H](C)[C@@H](O[C@@H]2O[C@H](C)C[C@H](N(C)C)[C@H]2O)[C@](C)(OC)C[C@@H](C)C(=O)N[C@H](C)[C@@H](O)[C@]1(C)O (some centres unmarked); 3%
CC[C@H]1OC(=O)[C@H](C)[C@@H](O[C@H]2C[C@@](C)(OC)[C@@H](OCCCN)[C@H](C)O2)[C@H](C)[C@@H](O[C@@H]2O[C@H](C)C[C@H](N(C)C)[C@H]2O)[C@](C)(O)C[C@@H](C)CN(C)[C@H](C)[C@H]2OC(=O)O[C@@]21C [Example 51C]; 15%
CC[C@H]1OC(=O)[C@H](C)[C@@H](O[C@H]2C[C@@](C)(OC)[C@@H](OC(=O)CCN3CCCCCC3)[C@H](C)O2)[C@H](C)[C@@H](O[C@@H]2O[C@H](C)C[C@H](N(C)C)[C@H]2O)[C@](C)(OC)C[C@@H](C)C(=O)N[C@H](C)[C@@H](O)[C@]1(C)O; 7%
CC[C@H]1OC(=O)[C@H](C)[C@@H](OC2C[C@@](C)(OC)[C@@H](OC(=O)CCN3CCNCC3)[C@H](C)O2)[C@H](C)[C@@H](OC2O[C@H](C)C[C@H](N(C)C)[C@H]2O)[C@](C)(OC)C[C@@H](C)C(=O)[C@H](C)[C@@H](O)[C@]1(C)O (some centres unmarked); 0%
CC[C@H]1OC(=O)[C@H](C)[C@@H](O[C@H]2C[C@@](C)(OC)[C@@H](OC(=O)CCN3CCN(CCN(C)C)CC3)[C@H](C)O2)[C@H](C)[C@@H](O[C@@H]2O[C@H](C)C[C@H](N(C)C)[C@H]2O)[C@](C)(OC)C[C@@H](C)C(=O)N[C@H](C)[C@@H](O)[C@]1(C)O; 5%
CC[C@H]1OC(=O)[C@H](C)[C@@H](O[C@H]2C[C@@](C)(OC)[C@@H](OC(=O)CCNC3CC3)[C@H](C)O2)[C@H](C)[C@@H](O[C@@H]2O[C@H](C)C[C@H](N(C)C)[C@H]2O)[C@](C)(OC)C[C@@H](C)C(=O)N[C@H](C)[C@@H](O)[C@]1(C)O; 2%
CC[C@H]1OC(=O)[C@H](C)[C@@H](O[C@H]2C[C@@](C)(OC)[C@@H](O)[C@H](C)O2)[C@H](C)[C@@H](O[C@@H]2O[C@H](C)C[C@H](N(C)C)[C@H]2O)[C@](C)(O)C[C@@H](C)CN(C)[C@H](C)[C@@H](O)[C@]1(C)O [azithromycin, reference compound]; 0%
CC[C@H]1OC(=O)[C@H](C)[C@@H](O[C@H]2C[C@@](C)(OC)[C@@H](OC(=O)CCN(C)CCN(CC)CC)[C@H](C)O2)[C@H](C)[C@@H](O[C@@H]2O[C@H](C)C[C@H](N(C)C)[C@H]2O)[C@](C)(OC)C[C@@H](C)C(=O)N[C@H](C)[C@@H](O)[C@]1(C)O; 8%
C=CC(=O)OC1[C@H](C)O[C@@H](O[C@H]2[C@H](C)[C@@H](O[C@@H]3O[C@H](C)C[C@H](NC)[C@H]3O)[C@](C)(OC)C[C@@H](C)C(=O)N[C@H](C)[C@@H](O)[C@](C)(O)[C@@H](CC)OC(=O)[C@@H]2C)C[C@@]1(C)OC (some centres unmarked); 0%
CC[C@H]1OC(=O)[C@H](C)C(O[C@H]2C[C@@](C)(OC)[C@@H](OC(=O)CCN(CC)CC)[C@H](C)O2)[C@H](C)[C@@H](O[C@@H]2O[C@H](C)C[C@H](N(C)C)[C@H]2O)[C@](C)(OC)C[C@@H](C)C(=O)[C@H](C)[C@H](O)[C@]1(C)O (some centres unmarked); 5%
CC[C@H]1OC(=O)[C@H](C)[C@@H](O[C@H]2C[C@@](C)(OC)[C@@H](OC(=O)CCNC(C)C)[C@H](C)O2)[C@H](C)[C@@H](O[C@@H]2O[C@H](C)C[C@H](N(C)C)[C@H]2O)[C@](C)(OC)C[C@@H](C)C(=O)N[C@H](C)[C@@H](O)[C@]1(C)O; 6%

###

Test system: TNF-α
Experiment: Inhibition of TNF-α production by stimulated human peripheral blood leukocytes in vitro
Format: cell-based
Settings: Homo sapiens, Leukocyte, 50 μM; PMA-stimulated PBL; read-out: Percentage of inhibition of TNF-α production
Measured endpoint: inhibition at 50 µM

CC[C@H]1OC(=O)[C@H](C)[C@@H](O[C@H]2C[C@@](C)(OC)[C@@H](OC(=O)CCNC3CC3)[C@H](C)O2)[C@H](C)[C@@H](O[C@@H]2O[C@H](C)C[C@H](N(C)C)[C@H]2O)[C@](C)(OC)C[C@@H](C)C(=O)N[C@H](C)[C@@H](O)[C@]1(C)O; 77%
CC[C@H]1OC(=O)[C@H](C)[C@@H](O[C@H]2C[C@@](C)(OC)[C@@H](OC(=O)CCN(CC)CC)[C@H](C)O2)[C@H](C)[C@@H](O[C@@H]2O[C@H](C)C[C@H](NC)[C@H]2O)[C@](C)(OC)C[C@@H](C)C(=O)N[C@H](C)[C@@H](O)[C@]1(C)O; 96%
CC[C@H]1OC(=O)[C@H](C)[C@@H](O[C@H]2C[C@@](C)(OC)[C@@H](OC(=O)CCN(C)CCO)[C@H](C)O2)[C@H](C)[C@@H](O[C@@H]2O[C@H](C)C[C@H](N(C)C)[C@H]2O)[C@](C)(OC)C[C@@H](C)C(=O)N[C@H](C)[C@@H](O)[C@]1(C)O; 96%
CC[C@H]1OC(=O)[C@H](C)[C@@H](O[C@H]2C[C@@](C)(OC)[C@@H](OC(=O)CCN3CCCCCC3)[C@H](C)O2)[C@H](C)[C@@H](O[C@@H]2O[C@H](C)C[C@H](N(C)C)[C@H]2O)[C@](C)(OC)C[C@@H](C)C(=O)N[C@H](C)[C@@H](O)[C@]1(C)O; 70%

###

Tested on: IL-8
Experiment: Inhibition of IL-8 production by stimulated human peripheral blood leukocytes in vitro
Type: cell-based
Conditions: Homo sapiens, Leukocyte, 50 μM; PMA-stimulated PBL; read-out: Percentage of inhibition of IL-8 production
Measured endpoint: inhibition at 50 µM

CC[C@H]1OC(=O)[C@H](C)[C@@H](O[C@H]2C[C@@](C)(OC)C(OC(=O)CCN(CC)CC)[C@H](C)O2)[C@H](C)[C@@H](O[C@@H]2O[C@H](C)C[C@H](NC)[C@H]2O)[C@](C)(O)C[C@@H](C)CN(C)[C@H](C)[C@@H](O)[C@]1(C)O (stereo partly shown) [Example 90]; 53%
CC[C@H]1OC(=O)[C@H](C)[C@@H](O[C@H]2C[C@@](C)(OC)[C@@H](OC(=O)CCN(CC)CC)[C@H](C)O2)[C@H](C)[C@@H](O[C@@H]2O[C@H](C)C[C@H](N(C)C)[C@H]2O)[C@](C)(OC)C[C@@H](C)C(=O)[C@H](C)[C@H]2N(C)C(=O)O[C@]12C [Example 10]; 42%
CC[C@H]1OC(=O)[C@H](C)[C@@H](O[C@H]2C[C@@](C)(OC)[C@@H](OC(=O)CCN3CCN(CCOCCO)CC3)[C@H](C)O2)[C@H](C)[C@@H](O[C@@H]2O[C@H](C)C[C@H](N(C)C)[C@H]2O)[C@](C)(OC)C[C@@H](C)C(=O)N[C@H](C)[C@@H](O)[C@]1(C)O [Example 18]; 0%
CC[C@H]1OC(=O)[C@H](C)[C@@H](O[C@H]2C[C@@](C)(OC)[C@@H](O)[C@H](C)O2)[C@H](C)[C@@H](O[C@@H]2O[C@H](C)C[C@H](N(C)C)[C@H]2O)[C@](C)(OC)C[C@@H](C)C(=O)[C@H](C)[C@@H](O)[C@]1(C)O [clarithromycin, reference compound]; 0%
CC[C@H]1OC(=O)[C@H](C)[C@@H](O[C@H]2C[C@@](C)(OC)[C@@H](OC(=O)CCN3CCCCCC3)[C@H](C)O2)[C@H](C)[C@@H](O[C@@H]2O[C@H](C)C[C@H](N(C)C)[C@H]2O)[C@](C)(OC)C[C@@H](C)C(=O)N[C@H](C)[C@@H](O)[C@]1(C)O [Example 41]; 42%
CC[C@H]1OC(=O)[C@H](C)[C@@H](O[C@H]2C[C@@](C)(OC)[C@@H](O)[C@H](C)O2)[C@H](C)[C@@H](O[C@@H]2O[C@H](C)C[C@H](N(C)C)[C@H]2O)[C@](C)(O)C[C@@H](C)CN(C)[C@H](C)[C@@H](O)[C@]1(C)O [azithromycin, reference compound]; 0%
CC[C@H]1OC(=O)[C@H](C)[C@@H](O[C@H]2C[C@@](C)(OC)[C@@H](OC(=O)CCNC3CC3)[C@H](C)O2)[C@H](C)[C@@H](O[C@@H]2O[C@H](C)C[C@H](N(C)C)[C@H]2O)[C@](C)(OC)C[C@@H](C)C(=O)N[C@H](C)[C@@H](O)[C@]1(C)O [Example 40]; 12%
